- System: DU-145 prostate
- Test protocol: NCI-60 one-dose screen, 48 h (100 = growth as untreated, 0 = no growth, -100 = all killed)
- Condition details: 10 µM unless noted
The panel holds about 83,000 compounds, 20% with a hit somewhere; the sample as a whole holds those more often.
Listing: growth of selected compounds
Respond with the bare value in %.

O=C(Nc1ccc(Cl)cc1)Oc1c(Cl)c(Cl)c(Cl)c(Cl)c1Cl | 97.9
O=C(NCc1cccc(CNC(=O)Nc2nc3ccccc3[nH]2)c1)Nc1nc2ccccc2[nH]1 | -32.6
CCS/C(Nc1ccccc1)=C(\C#N)C(=O)Nc1ccc(OC)cc1 | 33.8
COc1cccc(/C=N/NC(=O)c2ccccc2N2CCCC2)c1O | 68

Qu. What does the data say about its growth? Entry: CCN1C(=O)N(CC)C2C1NN=c1s/c(=C\c3ccc[nH]3)c(=O)n12 (configuration not stated)
Ans. -11.9

Qu. // growth lookup, key: `NC(N)=NS(=O)(=O)c1ccc(NC2=C(I)C(=O)c3ncccc3C2=O)cc1`
Ans. 105

Qu. Fill blank: measured growth of the compound `CC1(C)NCCC[C@]2(C)[C@H]3CC[C@H]4[C@H]5[C@H](C(=O)/C=C/c6cccnc6)CCC[C@]5(CO)CC[C@@]4(C)[C@]3(C)CC[C@@H]12` is ____.
Ans. 66.6

----------
- System: NCI-H522 lung
- Test protocol: NCI-60 one-dose screen, 48 h
- Condition details: 10 µM unless noted
The panel holds about 83,000 compounds, 20% with a hit somewhere; the sample as a whole holds those more often. Calls of active or inactive are those of the source. The calls were made as follows: active = growth percent below 10; inactive = the rest.
// classify into true (1) (active), false (0) (inactive)

Look over these answered cases.
Cc1ccc(-c2nc(-c3cn(C)c4ncccc34)cs2)cc1 | true (1)
O=C1/C(=C\c2ccccn2)c2ccccc2N1c1c(Cl)cccc1Cl | false (0)
CN(C)c1ccc(-c2nc(-c3ccccc3)c(-c3ccccc3)[nH]2)cc1 | false (0)

Qu. Short answer needed: outcome of this test for `O=C(O)[C@@H](Cc1ccc2ccccc2c1)NC(=O)n1c2ccccc2c2ccccc21` ?
Ans. true (1)

Qu. Recorded call for `Cc1ccc(Cl)cc1NC(=O)c1sc2nc3c(cc2c1N)C(=O)CCC3` ?
Ans. false (0)

----------
- Test system: NCI-H226 lung
- Test protocol: NCI-60 one-dose screen, 48 h
- Condition details: 10 µM unless noted
- Experimental: Growth inhibition of the NCI-H226 human Non-Small Cell Lung tumor cell line is measured as a screen for anti-cancer activity. Cells are grown in 96 well plates and exposed to the test compound for 48 hours. Compounds are tested at a single concentration, which is 10^-5 M for most compounds. The reported endpoint is percent growth (GI% or GIPRCNT), where numbers from 0 - 100% represent growth inhibition, and numbers from -100% - 0 represent cell death. […]
About 83,000 compounds went through this panel and 20% of them were active in at least one assay; those are over-represented in the sample as a whole. Active and inactive are the calls of the source. How the source made its calls: active means growth percent below 10; inactive means the rest.
Could you please pick one outcome from this set? label 1 for active, label 0 for inactive

Use these answered entries as a reference point.
COc1cc(/C=C/C(=O)/C=C(O)/C=C/c2ccc(OC(=O)C34CC5CC(CC(C5)C3)C4)c(OC)c2)ccc1OC(=O)C12CC3CC(CC(C3)C1)C2 | label 0
CCNC(=O)Oc1ccc(/C(=C(/C)Cc2ccc(OC)cc2)c2ccc(OCCN3CCCCC3)cc2)cc1 | label 0
Cc1ccc(/C=C/C(=O)c2cccc(OCCCOc3cccc(C(=O)/C=C/c4ccc(C)cc4)c3)c2)cc1 | label 0
CC(=O)c1sc2sc(C(C)=O)c(C)c2c1C | label 0
Cc1nc2sc(C(=O)Nc3cccc(Br)c3C)c(N)c2cc1C(O)c1ccccc1 (centres undefined) | label 0

Could you now look at the following compound, please?
Qu. Dear colleague, could you share the recorded outcome for `COc1ccc(C(=O)Cn2c(C(=O)c3ccc(OC)cc3)nc3ccccc32)cc1` when you have a moment?
Ans. label 0

----------
- Tested on: HOP-92 NSCLC
- Test protocol: NCI-60 one-dose screen, 48 h (100 = growth as untreated, 0 = no growth, -100 = all killed)
- Condition details: 10 µM unless noted
This is part of a sample that, as a whole, favours compounds with a hit. Of some 83,000 tested, about 20% had one in any assay.
Binning of growth into classes: low = under 70%, moderate = from 70% up to 90%, high = 90% and over

Use the examples below as a reference point.
CCOc1c(OC)cc2c(c1O)C(=O)N[C@@H]1[C@@H](O)[C@@H](O)[C@H](O)C[C@@H]21 | moderate
CC(C)(C)n1cc(-c2ccnc(NCCNS(=O)(=O)c3ccc(O)cc3)c2)c(-c2cccc(O)c2)n1 | high
CC/C=C\CCC/C=C1/C(=O)C=C[C@@H]1C/C=C\CCCC(=O)OC | moderate
Oc1c(CN2CCCC2)cc(CSCc2ccccc2)c2cccnc12 | low
COc1ccc(C[n+]2c3ccccc3n3c4ccc(N)cc4ccc32)c(OC)c1OC | low
Oc1c(CN2CCOCC2)cc(COCc2ccccc2)c2cccnc12 | low
COc1ccc(NC(=O)Nc2ccc(OCCCCCC(=O)NO)cc2)cc1 | high
CCOC(=O)C#Cc1c(C(=O)OCC)nnn1Cc1ccc(C(F)(F)F)cc1 | low

Then there is this compound:
Qu. Which class is correct for the following compound? CC1C(/C=N/NC(N)=S)C(C#N)(C#N)C1(C#N)C#N (stereo not given)
Ans. high

----------
- Test system: IGROV1 ovarian
- Test protocol: NCI-60 one-dose screen, 48 h
- Condition details: 10 µM unless noted
About 83,000 compounds went through this panel and 20% of them were active in at least one assay; those are over-represented in the sample as a whole. The source made the active and inactive calls. How the source made its calls: active means growth percent below 10; inactive means the rest.
I would appreciate it if you answered using one of these outcomes: active, inactive

As a guide, the following entries are already answered.
COc1ccc2c(c1)c(-c1nc(-c3c[nH]c4ncccc34)cs1)cn2CCCN1CCOCC1 | inactive
C=CCn1c(SCC(=O)Nc2ccc(/C(C)=N/O)cc2)nnc1-c1cc(-c2ccc(S(N)(=O)=O)cc2)nc2ccccc12 | inactive
O=C(Cc1ccc(/C=C/C(=O)c2ncc[nH]2)cc1)Nc1cc(C(F)(F)F)cc(C(F)(F)F)c1 | inactive

Qu. Hello, I am checking results. What call was entered for `COc1ccc(/C=C/C(=O)c2cc(OC)c(OC)c(OC)c2)cc1OCC(=O)Nc1nc2ccc(OC(F)(F)F)cc2s1` ?
Ans. active

Qu. Kindly provide the recorded test outcome for the following compound: `O=S(=O)(NCCCNc1nccc(-c2c(-c3cccc(F)c3)nc3occn23)n1)c1ccc(F)cc1`
Ans. inactive

----------
- Tested on: UO-31 renal
- Test protocol: NCI-60 one-dose screen, 48 h (100 = growth as untreated, 0 = no growth, -100 = all killed)
- Condition details: 10 µM unless noted
This is part of a sample that, as a whole, favours compounds with a hit. Of some 83,000 tested, about 20% had one in any assay. Calls of active or inactive are those of the source. Rule for the calls: active = growth percent below 10; inactive = the rest.
Reported endpoint: growth

Reference set, count: 8
O=C(/C=C/c1ccccc1)c1ccc(Nc2nc(Nc3ccc(F)cc3)nc(Nc3ccc(Cl)cc3)n2)cc1 | 82% (inactive)
CC(C)(C)n1cc(-c2ccnc(NCCCNS(=O)(=O)c3ccc(C(F)(F)F)cc3)c2)c(-c2cccc(F)c2)n1 | 78% (inactive)
O=C1/C(=C2\SC(=S)N(C3CC3)C2=O)SC(=S)N1C1CC1 | 77.4% (inactive)
CCN1C(=O)N(CC)C2C1NN=c1s/c(=C3\C(=O)N(CCC(C)C)c4ccccc43)c(=O)n12 (centres undefined) | 29.5% (inactive)
C=C(C)[C@@H]1CC[C@]2(C(N)=O)CC[C@]3(C)[C@H](CC[C@@H]4[C@@]5(C)CC[C@H](OCCC#N)C(C)(C)[C@@H]5CC[C@]43C)[C@@H]12 | 75.8% (inactive)
Cc1cccc(Oc2ccc(Nc3ncnc4ccc(NC(=O)CN5CCN(C)CC5)cc34)cc2Cl)c1 | 22.2% (inactive)
CCCCCN(CCCCC)CC(O)c1cc(C)c2ccc3cc(C(C)C)ccc3c2c1 (centres undefined) | 51.8% (inactive)
Cc1ccc(C=C2C(=O)NC(=O)NC2=O)cc1 | 89.9% (inactive)

Let us examine a further case.
Qu. What does the record list as growth for `COc1ccc(Oc2nc(Nc3ccc(N4CCOCC4)cc3)ncc2NC(=O)Nc2cc(OC)cc(OC)c2)cc1` ?
Ans. 47.8% (inactive)

----------
- Tested on: HS 578T breast
- Test protocol: NCI-60 one-dose screen, 48 h
- Condition details: 10 µM unless noted
Compounds without any hit were thinned out: in the full panel of roughly 83,000, 20% have a hit. Activity calls are given as the source filed them. Rule for the calls: active = growth percent below 10; inactive = the rest.
The reply should be one of these categories: active, inactive

Cc1c(CC(=S)N2CCOCC2)nnn1-c1cccc(C(F)(F)F)c1 | inactive
CN1CCN(c2ccc3nc4c(nc3c2C(F)(F)F)C(=O)c2ncccc2C4=O)CC1 | active
CCCCNC(=O)Oc1ccc(/C(=C(/C)Cc2ccc(OC)cc2)c2ccc(OCCN3CCCCCC3)cc2)cc1 | inactive

Qu. Query: recorded result category for `CCCCNC(=O)c1cc([N+](=O)[O-])cc(C2CCCCC2)c1O` in this test
Ans. inactive

Qu. Recorded test outcome, item `Cc1cn(-c2cc(NC(=O)c3cncc(C#Cc4c(N)ncc5ccc(F)cc45)c3)cc(C(F)(F)F)c2)cn1`
Ans. inactive

Qu. What was the test verdict on `O=C(N/N=C\c1cccc([N+](=O)[O-])c1)N/N=C/c1cccc([N+](=O)[O-])c1` ?
Ans. inactive

Qu. # lookup: test call for `O=C1/C=C/[C@@H](O)[C@@H]2C[C@@H](O)C[C@H]2/C=C/CCC[C@H](CCO)O1`
Ans. inactive

Qu. Outcome logged for `O=C1Nc2ccccc2/C1=C\c1c[nH]c2ccc(Br)cc12` in this assay:
Ans. inactive

Qu. I would be grateful if you could indicate the recorded call for `C=C(C)[C@@H]1CCC[C@]2(C(=O)N3CCN(C)CC3)CC[C@]3(C)[C@@H](CC[C@@H]4[C@@]5(C)CC/C(=N\NC(=O)c6ccncc6)C(C)(C)[C@@H]5CC[C@]43C)[C@@H]12` .
Ans. inactive

Qu. Short answer needed: outcome of this test for `CCc1ccc(CCC(=O)Nc2ncc(Cc3ccccc3)s2)o1` ?
Ans. active
